Entry source: ChEMBL document CHEMBL1201862

- Tested on: 786-0
- Method: NCI tumour cell line growth inhibition, 48 h
Active and inactive are the calls of the source. Cut-off read from the data, not from the text of the source: active = GI50 up to about 1.1 µM and inactive = higher.
Your answer must be one of the following: 1 (yes) = active, 0 (no) = inactive

Record excerpt, results attached:
Compound	Discrete label
O=C1CSC(c2ccccc2O)N1c1nc2cc3sc(N4C(=O)CSC4c4ccccc4O)nc3cc2s1 (stereo not given)	0 (no)
O=C1C(c2c(O)[nH]c3ccc(S(=O)(=O)O)cc23)=Nc2ccccc21	0 (no)
N#CC(c1ccc(Cl)cc1)c1cccc(C(C#N)c2ccc(Cl)cc2)n1 (stereo not given)	0 (no)

# input Hi team, can someone confirm the assay call for CC(C)(C)OC(=O)NC(CO)c1cccc(OCc2ccccc2)c1 (stereo not given) ?
# output 0 (no)

# input Recorded call for Nc1ccc(C(=O)NN2C(=O)C(Cl)C2c2ccccc2Cl)cc1 (stereo not given) ?
# output 0 (no)
